# measured target: serotonin 5-HT1A receptor (Rattus norvegicus, UniProt P19327)
# Construct: following the procedure of Hall et al., J. Neurochem; 44, 1685 (1985); from tissue; host or cells: brain tissue (from the cited method)
# assay method text: 5-HT1A Binding: displacement of [3H] 8-OHDPAT
value kind: inhibition at 0.1 µM (%)

compound: O=C(OCCNCC1COc2ccccc2O1)C12CC3CC(CC(C3)C1)C2 (centres unmarked)
value kind: inhibition at 0.1 µM
experimental result: 100
--
compound: CC1(C)C2CCC1(C(=O)NCCNCC1COc3ccccc3O1)C(=O)C2 (single isomer, unassigned; (+)) [Example 5]
value kind: inhibition at 0.1 µM
experimental result: 97
--
compound: O=C(NCCNCC1COc2ccccc2O1)C12CC3CC(CC1C3)C2 (centres unmarked)
value kind: inhibition at 0.1 µM
experimental result: 98
--
compound: O=C(NCCNCC1COc2ccccc2O1)NC12CC3CC(CC(C3)C1)C2 (centres unmarked)
value kind: inhibition at 0.1 µM
experimental result: 98
--
compound: CC1(C)C2CCC1(C(=O)NCCNCC1COc3ccccc3O1)C(=O)C2 (single isomer, unassigned; (-)) [Example 6]
value kind: inhibition at 0.1 µM
experimental result: 88
--
compound: O=C(NCCNCC1COc2ccccc2O1)NC12CC3CC(CC1C3)C2 (centres unmarked)
value kind: inhibition at 0.1 µM
experimental result: 95
--
compound: CC1(C)[C@H]2CC[C@]1(CS(=O)(=O)NCCNCC1COc3ccccc3O1)C(=O)C2 (single isomer, unassigned)
value kind: inhibition at 0.1 µM
experimental result: 90
--
compound: O=C(NCCNCC1COc2ccccc2O1)C12CC3CC(CC(C3)C1)C2 (centres unmarked)
value kind: inhibition at 0.1 µM
experimental result: 100

* * *

# measured target: serotonin 5-HT1A receptor (Rattus norvegicus)
# Construct: following the procedure of Hall et al., J. Neurochem; 44, 1685 (1985)
# Sequence (P19327 1-422): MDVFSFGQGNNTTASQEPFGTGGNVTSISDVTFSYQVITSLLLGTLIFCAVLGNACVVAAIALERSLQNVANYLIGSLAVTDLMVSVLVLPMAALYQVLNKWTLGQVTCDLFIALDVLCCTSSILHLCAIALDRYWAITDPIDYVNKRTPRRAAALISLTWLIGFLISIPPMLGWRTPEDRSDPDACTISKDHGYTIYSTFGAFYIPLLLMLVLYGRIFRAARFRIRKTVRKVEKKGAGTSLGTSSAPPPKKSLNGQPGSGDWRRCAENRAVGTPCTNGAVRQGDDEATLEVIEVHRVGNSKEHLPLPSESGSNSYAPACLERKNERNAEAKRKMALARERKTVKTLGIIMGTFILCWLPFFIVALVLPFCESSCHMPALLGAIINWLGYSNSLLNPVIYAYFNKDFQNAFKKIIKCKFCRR
# assay method text: 5-HT1A Binding: displacement of [3H] 8-OHDPAT
# assay conditions: 5-HT1A binding, given as EC50
value kind: EC50 (nM)
Hi! Could you send only the number? It should be in nM, unit omitted.

Memo: CC1(C)C2CCC1(C(=O)NCCNCC1COc3ccccc3O1)C(=O)C2 (single isomer, unassigned; (+)) [Example 5] , reported EC50: 3

* * *

# measured target: dopamine D-2 receptor (Rattus norvegicus)
# Construct: from tissue; host or cells: homogenized limbic brain tissue
# Sequence (P61169 whole entry): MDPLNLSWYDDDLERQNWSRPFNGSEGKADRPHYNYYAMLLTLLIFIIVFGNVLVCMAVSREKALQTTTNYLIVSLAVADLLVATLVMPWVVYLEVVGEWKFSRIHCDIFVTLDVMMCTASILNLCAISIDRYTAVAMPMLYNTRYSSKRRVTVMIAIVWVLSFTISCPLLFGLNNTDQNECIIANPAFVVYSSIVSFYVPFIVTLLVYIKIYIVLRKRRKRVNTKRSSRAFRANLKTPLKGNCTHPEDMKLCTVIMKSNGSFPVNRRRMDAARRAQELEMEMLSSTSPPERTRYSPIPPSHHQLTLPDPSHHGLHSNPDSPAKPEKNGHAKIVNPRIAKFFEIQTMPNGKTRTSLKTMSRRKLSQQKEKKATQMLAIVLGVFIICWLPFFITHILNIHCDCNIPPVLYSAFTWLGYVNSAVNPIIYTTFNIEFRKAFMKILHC
# assay method text: D-2 Binding: displacement of 3H-spiroperidol in homogenized limbic brain tissue
value kind: inhibition at 1 µM (%)

# count of solved cases: 5
compound: O=C(NCCNCC1COc2ccccc2O1)C12CC3CC(CC1C3)C2 (centres unmarked)
measured target: dopamine D-2 receptor (Rattus norvegicus)
experimental result: 81
--
compound: O=C(NCCNCC1COc2ccccc2O1)NC12CC3CC(CC1C3)C2 (centres unmarked)
measured target: dopamine D-2 receptor (Rattus norvegicus)
experimental result: 55
--
compound: O=C(OCCNCC1COc2ccccc2O1)C12CC3CC(CC(C3)C1)C2 (centres unmarked)
measured target: dopamine D-2 receptor (Rattus norvegicus)
experimental result: 91
--
compound: O=C(NCCNCC1COc2ccccc2O1)NC12CC3CC(CC(C3)C1)C2 (centres unmarked)
measured target: dopamine D-2 receptor (Rattus norvegicus)
experimental result: 27
--
compound: CC1(C)C2CCC1(C(=O)NCCNCC1COc3ccccc3O1)C(=O)C2 (single isomer, unassigned; (-)) [Example 6]
measured target: dopamine D-2 receptor (Rattus norvegicus)
experimental result: 34

P = CC1(C)C2CCC1(C(=O)NCCNCC1COc3ccccc3O1)C(=O)C2 (single isomer, unassigned; (+)) [Example 5]
Q = O=C(NCCNCC1COc2ccccc2O1)C12CC3CC(CC(C3)C1)C2 (centres unmarked)
R = CC1(C)[C@H]2CC[C@]1(CS(=O)(=O)NCCNCC1COc3ccccc3O1)C(=O)C2 (single isomer, unassigned)
Query: Sort low-to-high on inhibition at 1 µM, please. Sort and list the labels as requested.
Reply: P, R, Q
